System: HOP-92
Method summary: NCI tumour cell line growth inhibition, 48 h
Active and inactive are the calls of the source. No stated cut-off is given here; in the data, active = GI50 up to about 1.1 µM and inactive = higher.
Possible outcomes: active, inactive

>>> df
                                    molecule  test_target     class
 0    C1CCC(OC2CSC2)OC1 (stereo unspecified)       HOP-92  inactive
 1  O=c1c2cc(-c3ccccc3)sc2nc2n1N=C(c1ccc(Cl)cc1)CS2       HOP-92  inactive
 2  CCOC(=O)C(SCCO)C(C(=O)OCC)n1ccc(N)nc1=O (stereo unspecified)       HOP-92  inactive
 3  CN1CCN([C@H]2C[C@H]3[C@@H]4CC=C5C[C@@H](O)CC[C@]5(C)[C@H]4CC[C@]3(C)C2=O)CC1       HOP-92  inactive
 4  O=C(O)C1CCCN1Cc1ccc2c(c1)OCO2 (stereo unspecified)       HOP-92  inactive
 5         COc1ccc(-n2c(N)c(C#N)[nH]c2=O)cc1       HOP-92  inactive
 6  COC(=O)c1c(C(=O)OC)c(-c2ccccc2)n(-c2ccccc2)c(=O)c1-c1ccccc1       HOP-92  inactive
 7  C=C1CCCC(C)(C)C1CCC1(C)CCC(C(C)C(=O)OC)OO1 (stereo unspecified)       HOP-92    active
 8  CC12N=NNC1C(=O)NC2=O (stereo unspecified)       HOP-92  inactive
 9  Cc1cccc(C(C)(C)C)c1NC(=O)CC1C(=O)Nc2ccccc2[S+]1[O-] (stereo unspecified)       HOP-92  inactive
10  C=CC(Cl)(CBr)CCC(Br)=C(C)C (stereo unspecified)       HOP-92  inactive

* * *

Tested on: Hs-578T
Method summary: NCI tumour cell line growth inhibition, 48 h
Activity calls are given as the source filed them. Cut-off read from the data, not from the text of the source: active = GI50 up to about 1.1 µM and inactive = higher.
Metric name: GI50

Compound	Metric name	Measurement
O=c1[nH]c(N/N=C\C(=N/Nc2nc3ccccc3c(=O)[nH]2)C(O)C(O)C(O)CO)nc2ccccc12 (stereo not drawn)	GI50	> 100 µM (inactive)
CC(=O)O[C@@H]1C[C@@]2(C)[C@@H]3CC=C4[C@@H](C[C@H](O)C(=O)C4(C)C)[C@]3(C)C(=O)C[C@]2(C)[C@H]1[C@@](C)(O)C(=O)/C=C/C(C)(C)OC(C)=O	GI50	4.71 µM (inactive)
[N-]=[N+]=Nc1c([N+](=O)[O-])c(=O)n(-c2ccccc2)c2ccccc12	GI50	20 µM (inactive)
O=C(O)C[S+]([O-])c1ccc2c3c(cccc13)C(=O)c1ccccc1-2 (stereo not drawn)	GI50	> 100 µM (inactive)
COc1cc(OC)nc(NC(=O)NS(=O)(=O)c2cccc3ncn(C)c(=O)c23)n1	GI50	67.1 µM (inactive)
CC(C)C1=C2CCC3(C)C(CCC4C5C6OCC5(CCC6(C)C)CCC43C)C2(C)CC1 (stereo not drawn)	GI50	22.8 µM (inactive)
CN(C)CCNc1ccc(CO)c2oc3ccc(O)cc3c(=O)c12	GI50	14 µM (inactive)
Cc1cc(=O)oc2c3c(ccc12)OC(c1ccc(Br)cc1)CC3=O (stereo not drawn)	GI50	2.56 µM (inactive)

* * *

Test system: MDA-MB-435
Method summary: NCI tumour cell line growth inhibition, 48 h
Calls of active or inactive are those of the source. Rule as the data show it: active = GI50 up to about 1.1 µM and inactive = higher.
Possible outcomes: active, inactive

>>> print(df.to_string())
                                    molecule     class
 0                OCc1cn(Cc2ccccc2)c2ccccc12  inactive
 1  CN1C(=O)c2ccccc2OC12C=Cc1ccc(O)cc1O2 (stereo unspecified)  inactive
 2  Cc1cccc(NC(=O)/C=C/c2ccc([N+](=O)[O-])cc2)c1  inactive
 3  CC(C)(C)OC(=O)CN1C(=O)CC1CC(=O)c1ccccc1 (stereo unspecified)  inactive
 4  C#CC(C)(C)Oc1cc(OC)c2c(=O)c3ccccc3n(C)c2c1  inactive
 5  Nc1nc(N)c2nc(CNc3ccc(C(=O)NC(CCCNC(=O)c4ccccc4C(=O)O)C(=O)O)cc3)cnc2n1 (stereo unspecified)    active
 6                 CC1=C(C)Cc2c(O)ccc(O)c2C1  inactive
 7  O=C1CS(=O)(=O)C(c2cccc(Oc3ccccc3)c2)N1c1ccc(Cl)cc1 (stereo unspecified)  inactive
 8  CC1COC(c2cn[nH]c2C(N)=O)C1O (stereo unspecified)  inactive
 9  O=C(O)C1CCCN1Cc1ccc2c(c1)OCO2 (stereo unspecified)  inactive
10  Cc1cccc(NC(Nc2cccc(C)c2)=C(C(Cl)=C(Cl)Cl)[N+](=O)[O-])c1  inactive

* * *

Test system: IGROV-1
Method summary: NCI tumour cell line growth inhibition, 48 h
Calls of active or inactive are those of the source. No stated cut-off is given here; in the data, active = GI50 up to about 1.1 µM and inactive = higher.
Metric name: GI50

                                    compound          measurement
 0  COC1CCC(=C2C(=O)OC(C)(C)OC2=O)N1 (stereo unspecified)  > 100 µM (inactive)
 1  Cc1c(C(=O)/C=C/C=C/c2ccccc2)[n+]([O-])c2ccccc2[n+]1[O-]   26.3 µM (inactive)
 2         COc1ccc(-n2c(N)c(C#N)[nH]c2=O)cc1   > 10 µM (inactive)
 3             Cc1cc(=O)cc2sc3c(C)cccc3nc1-2   24.9 µM (inactive)
 4  CC1(C)COC(c2c(-c3ccccc3)noc2C[S+]([O-])c2ccccc2)=N1 (stereo unspecified)   88.5 µM (inactive)
 5  O=C(O)C[S+]([O-])c1ccc2c3c(cccc13)C(=O)c1ccccc1-2 (stereo unspecified)  > 100 µM (inactive)
 6         Oc1ncnc2c1nnn2CCCn1nnc2c(O)ncnc21  > 100 µM (inactive)
 7  COc1ccc(/C(Cl)=C(\C=O)c2ccc([N+](=O)[O-])cc2)cc1   22.4 µM (inactive)
 8  COC(=O)C1CCC(=O)N1CN(C(C)=O)c1ccccc1Cl (stereo unspecified)  > 100 µM (inactive)
 9  COc1cccc2c1C1(O)C2CCCC12OCCCO2 (stereo unspecified)  > 100 µM (inactive)
10  Nc1nc2c3nc(Nc4ccccc4)sc3nc(=S)n2c2sc(Nc3ccccc3)nc12  > 100 µM (inactive)

* * *

System: MCF7
Method summary: NCI tumour cell line growth inhibition, 48 h
The source made the active and inactive calls. Cut-off read from the data, not from the text of the source: active = GI50 up to about 1.1 µM and inactive = higher.
Possible outcomes: true = active, false = inactive

Compound	Class
Nc1nc(Br)nc2ncn(C3CC(O)C(CO)O3)c12 (centres undefined)	false
CNc1ccc(Cl)cc1C(=O)N1CCC[C@H]1CO	false
Nc1nc(N)c2nc(CNc3ccc(C(=O)NC(CCCNC(=O)c4ccccc4C(=O)O)C(=O)O)cc3)cnc2n1 (centres undefined)	true
COc1cc(OC)nc(NC(=O)NS(=O)(=O)c2cccc3ncn(C)c(=O)c23)n1	false
O=C(O)C[S+]([O-])c1ccc2c3c(cccc13)C(=O)c1ccccc1-2 (centres undefined)	false
Nc1nc(Nc2ccccc2)sc1C(=O)c1ccc(Cl)cc1	false
O/N=N/c1ccccn1.OCC1OC2OC3C(CO)OC(OC4C(CO)OC(OC5C(CO)OC(OC6C(CO)OC(OC7C(CO)OC(OC1C(O)C2O)C(O)C7O)C(O)C6O)C(O)C5O)C(O)C4O)C(O)C3O (centres undefined)	false
O=C1N/N=C\c2ccc(cc2)OCc2cccc(n2)COc2ccc(cc2)/C=N\NC1=O	false
CN(C)CCc1ccnc2nc(-c3ccc4ccccc4c3)cn12	false

* * *

System: NCI-H460
Method summary: NCI tumour cell line growth inhibition, 48 h
Activity calls are given as the source filed them. Cut-off read from the data, not from the text of the source: active = GI50 up to about 1.1 µM and inactive = higher. Where a SMILES comes first, the peptide text is derived from it. [ ]: non-standard residue; d: D form. The star is where a group is joined. Octanoyl = CCCCCCCC(=O)*; Aib = CC(C)(N)C(=O)O; tBu = CC(C)(C)*
Here, each record is paired with measured GI50 data.
Metric name: GI50

Compound	Test target	Metric name	Measurement
CC[C@@]1(O)C(=O)OCc2c1cc1n(c2=O)Cc2c-1nc1ccccc1c2/C=N\NC(=O)C(N)Cc1ccc(O)cc1 (stereo partly drawn)	NCI-H460	GI50	0.187 µM (active)
O=C1C=C2CC[C@H]3[C@@H]4CC[C@H](Oc5c6ccccc6nc6ccccc56)[C@H]4CC[C@@H]3[C@H]2CC1	NCI-H460	GI50	35.6 µM (inactive)
C=C1c2c(n(S(=O)(=O)c3ccccc3)c3ccccc23)[C@@]2(C(=O)OC)CC3C=CC2N1C3	NCI-H460	GI50	> 100 µM (inactive)
CN(O)C(=S)c1ccccc1	NCI-H460	GI50	2.9 µM (inactive)
C=CC(C)(C)N[C@@H](C(=O)N1CCC[C@H]1c1nc(-c2nc(C(=O)OCC=C(C)C)c(C)o2)c(C)o1)C(C)C	NCI-H460	GI50	24 µM (inactive)
OC(c1ccccc1)(c1ccccc1)c1ccccn1	NCI-H460	GI50	> 100 µM (inactive)
CCOC(=O)Nc1nn(C)/c(=N/Cc2ccccc2)s1	NCI-H460	GI50	> 100 µM (inactive)
CCOCCOC(=O)C1CCC(=O)N1CN(C(C)=O)c1cc(OC)ccc1OC (stereo not drawn)	NCI-H460	GI50	> 100 µM (inactive)
CC(=C\c1ccccc1)/C=C(\C#N)C(N)=O	NCI-H460	GI50	> 10 µM (inactive)
Oc1cc(-c2ccc(Cl)cc2)cn2c1nc1ccccc12	NCI-H460	GI50	5.21 µM (inactive)
CCOC(=O)N1CCC(N[C@@H]2c3cc4c(cc3[C@@H](c3cc(OC)c(O)c(OC)c3)[C@H]3C(=O)OC[C@@H]32)OCO4)CC1	NCI-H460	GI50	0.065 µM (active)
CCCCCCCC(=O)NC(C)(C)C(=O)NC(COC(C)(C)C)C(=O)NC(CC(C)C)C(=O)NC(C)(C)C(=O)NC(COC(C)(C)C)C(=O)NC(COC(C)(C)C)C(=O)NC(CC(C)C)C(=O)NC(C)(C)C(=O)NC(COC(C)(C)C)C(=O)NC(C(=O)NC(CC(C)C)C(=O)OC)C(C)CC (stereo not drawn) (Octanoyl-[Aib]S(tBu)L[Aib]S(tBu)S(tBu)L[Aib]S(tBu)IL-OMe; configuration not given here)	NCI-H460	GI50	5.64 µM (inactive)
C1CCC(OC2CSC2)OC1 (stereo not drawn)	NCI-H460	GI50	> 100 µM (inactive)
CCOC(=O)CCSS(=O)(=O)c1ccccc1	NCI-H460	GI50	> 100 µM (inactive)
C=C(Cl)/C(=C\Cl)CCC(Br)C(C)C (stereo not drawn)	NCI-H460	GI50	> 100 µM (inactive)
O=C1Nc2ccc(Br)cc2/C1=C/C(=O)c1ccccc1	NCI-H460	GI50	18.2 µM (inactive)
COc1ccc(CC(COS(=O)(=O)c2ccc(C)cc2)NS(=O)(=O)c2ccc(C)cc2)cc1 (stereo not drawn)	NCI-H460	GI50	11.5 µM (inactive)
N#Cc1cc(C#N)c(N)nc1N	NCI-H460	GI50	> 100 µM (inactive)
C=CCc1cccc2cc(C(=O)Nc3nc(C45CC6CC(CC(C6)C4)C5)cs3)c(=O)oc12	NCI-H460	GI50	29.9 µM (inactive)
O/N=N/c1ccccn1.OCC1OC2OC3C(CO)OC(OC4C(CO)OC(OC5C(CO)OC(OC6C(CO)OC(OC7C(CO)OC(OC1C(O)C2O)C(O)C7O)C(O)C6O)C(O)C5O)C(O)C4O)C(O)C3O (stereo not drawn)	NCI-H460	GI50	68.7 µM (inactive)
O=C(CC(=O)N1N=C(c2ccccc2)C(/N=N/c2ccc(C(=O)O)cc2)C1=O)Nc1ccc(F)cc1 (stereo not drawn)	NCI-H460	GI50	28.7 µM (inactive)
Cc1ccc(S(=O)(=O)n2cc(-c3cnc(N)c(Br)n3)c3ccccc32)cc1	NCI-H460	GI50	3.18 µM (inactive)
CCCCC(=O)OC[n+]1ccc2c(C)c3[nH]c4ccccc4c3c(C)c2c1	NCI-H460	GI50	0.0275 µM (active)
O=C(O)C[S+]([O-])c1ccc2c3c(cccc13)C(=O)c1ccccc1-2 (stereo not drawn)	NCI-H460	GI50	> 100 µM (inactive)
COc1ccc(-c2nc(SCC(=O)N/N=C/c3ccc([N+](=O)[O-])cc3)[nH]c2-c2ccc(OC)cc2)cc1	NCI-H460	GI50	10.3 µM (inactive)
COC(=O)c1c(C(=O)OC)c(-c2ccccc2)n(-c2ccccc2)c(=O)c1-c1ccccc1	NCI-H460	GI50	98.6 µM (inactive)
C/C=C1/CCC2c3[nH]c4ccccc4c3CCN2C1 (stereo not drawn)	NCI-H460	GI50	> 100 µM (inactive)
Cc1ccc(-c2cc(-c3ccco3)nc(N)n2)o1	NCI-H460	GI50	> 100 µM (inactive)
O=C(NN1C(=O)C(Cl)C1c1c(O)ccc2ccccc12)c1ccccc1O (stereo not drawn)	NCI-H460	GI50	> 100 µM (inactive)
O=C1c2ccccc2C(=O)c2c1ccc1c3ccccc3n(-c3ccccc3)c21	NCI-H460	GI50	27.2 µM (inactive)
CCN(CC)C(=O)Cn1c(-c2ccccc2)cc2ccccc21	NCI-H460	GI50	36.4 µM (inactive)
CC1(C)COC(c2c(-c3ccccc3)noc2C[S+]([O-])c2ccccc2)=N1 (stereo not drawn)	NCI-H460	GI50	28.3 µM (inactive)
Cc1ccc(Nc2n[nH]c(=S)s2)cc1	NCI-H460	GI50	> 100 µM (inactive)
Cc1cc(Cl)nc(Nc2nc3ccccc3[nH]2)n1	NCI-H460	GI50	> 100 µM (inactive)
O=C(COc1ccc(/C=C/C(=O)c2ccc(Cl)cc2)cc1)Nc1c(Cl)cccc1Cl	NCI-H460	GI50	> 100 µM (inactive)
Cc1cc(Oc2cnc(=O)[nH]c2)cs1	NCI-H460	GI50	> 100 µM (inactive)
Cc1cc2c(cc1C)N1C(Cl)=C3CCCCC3=C(C#N)C1N2 (stereo not drawn)	NCI-H460	GI50	18 µM (inactive)
CN(C(=O)c1ccc(Cl)cc1)C(=S)N1CCN(c2ccccc2)CC1	NCI-H460	GI50	37.8 µM (inactive)
